These measurements were taken from patent US20240360114A1.

# Tested on: HT-1080 cells
# Assay: HT-1080 cell viability assay (ferroptosis induced by RSL3, Cell Titer-Glo)
# Format: cell-based
# Setup conditions: Homo sapiens, HT-1080, 20 h, ferroptosis inducer RSL3, 20 hours, ferroptosis inhibitory activity, Table 2
pEC50: −log10 of the molar value.
We begin with a simple list: items and their reported pEC50.

{"columns": ["Compound", "pEC50"],
 "data": [
  ["CC(C)C1CCN(c2ncc(NC3CCC(N)CC3)cn2)CC1 (stereo not drawn) [Compound 34A]", "7.00 to 10.00"],
  ["NC1CCC(Nc2ccc(-n3cccn3)cc2)CC1 (stereo not drawn) [Compound 37A]", "5.00 to 6.00"],
  ["CCC(C)(C)c1ccc(NC2CCC(C)(N)CC2)cc1 (stereo not drawn)", "7.00 to 10.00"]
]}

###

# Test system: HT-1080 cells
# Assay: HT-1080 cell viability assay (ferroptosis induced by RSL3, Cell Titer-Glo)
# Format: cell-based
# Setup conditions: Homo sapiens, HT-1080, 20 h, ferroptosis inducer RSL3, 20 hours, ferroptosis inhibitory activity, Table 2
pEC50: −log10 of the molar value.
Listed here: items and their measured pEC50.

{"columns": ["Molecule", "Target or test system", "pEC50"],
 "data": [
  ["Cc1nc(N2CCC(C(F)(F)F)CC2)ccc1NC1CCC(CNC(=O)C2CNC(=O)C2)CC1 (stereo not drawn)", "HT-1080 cells", "7.00 to 10.00"],
  ["COC1(C)CCN(c2ccc(NC3CC4(CC(N)C4)C3)c(C)n2)CC1 (stereo not drawn)", "HT-1080 cells", "7.00 to 10.00"],
  ["Cc1nc(N2CC3(CCOCC3)C2)ccc1NC1CC2(CC(N)C2)C1 (stereo not drawn)", "HT-1080 cells", "6.00 to 7.00"],
  ["NC1CC2(C1)CC(Nc1ccc(N3CCC(C(F)(F)F)CC3)nc1)C2 (stereo not drawn)", "HT-1080 cells", "7.00 to 10.00"],
  ["CC(C)(C)c1ccc(NC2CCC(N)(CN)CC2)cc1 (stereo not drawn)", "HT-1080 cells", "6.00 to 7.00"],
  ["O=C1NC[C@H](C(=O)NCC2CCC(Nc3ccc(C4CCCCC4)cc3)CC2)N1 (single isomer, unassigned) [Compound 117A]", "HT-1080 cells", "7.00 to 10.00"],
  ["CC(C)(C)c1ccc(NC[C@H]2CC[C@H](NCCO)CC2)cc1", "HT-1080 cells", "7.00 to 10.00"],
  ["Cc1nc(N2CC(C)OC(C)C2)ccc1NC1C2CC3CC1CC(N)(C3)C2 (stereo not drawn) [Compound 474A]", "HT-1080 cells", "7.00 to 10.00"],
  ["CC1(C)CCC(c2ccc(NC3CCC(CCNC(=O)[C@H]4CC(=O)NC(=O)N4)CC3)cc2)CC1 (stereo partly drawn) [Compound 244A]", "HT-1080 cells", "7.00 to 10.00"],
  ["O=C1NCC(C(=O)NC2CC3(C2)CC(Nc2ccc(N4CCC(C(F)(F)F)CC4)cc2)C3)N1 (stereo not drawn)", "HT-1080 cells", "7.00 to 10.00"],
  ["CC(C)(C)c1ccc(NC2CCC(CN)CC2)cc1 (stereo not drawn)", "HT-1080 cells", "7.00 to 10.00"],
  ["NC(=O)C1CCC(Nc2ccc(N3CCC(C(F)(F)F)CC3)cc2)CC1 (stereo not drawn)", "HT-1080 cells", "7.00 to 10.00"],
  ["Cc1cc(NC2CCC(N)CC2)ccc1N1CCC(C(F)(F)F)CC1 (stereo not drawn)", "HT-1080 cells", "7.00 to 10.00"],
  ["Cc1cc(NC2CCCCC2C(N)=O)ccc1N1CCC(C)CC1 (stereo not drawn)", "HT-1080 cells", "7.00 to 10.00"],
  ["O=C1CC(C(=O)NC2CC(Nc3ccc(C4CCCCC4)cc3)C2)CN1 (stereo not drawn)", "HT-1080 cells", "6.00 to 7.00"],
  ["Cc1nc(N2CC(C)OC(C)(C)C2)ccc1NC1CC2(CC(N)C2)C1 (stereo not drawn)", "HT-1080 cells", "5.00 to 6.00"],
  ["Cc1cc(N2CCC(C(F)(F)F)CC2)c(Cl)cc1NC1CCC(N)CC1 (stereo not drawn)", "HT-1080 cells", "7.00 to 10.00"],
  ["CC(C)(C)c1ccc(NC2C3CC4CC2CC(N)(C4)C3)cc1 (stereo not drawn)", "HT-1080 cells", "7.00 to 10.00"],
  ["CC(C)(C)c1ccc(NC2CCC(N)C(O)C2)cc1 (stereo not drawn)", "HT-1080 cells", "6.00 to 7.00"],
  ["CC[C@@H]1CN(c2ccc(NC3CC4(CC(N)C4)C3)c(C)n2)C[C@@H](C)O1 (stereo partly drawn)", "HT-1080 cells", "7.00 to 10.00"],
  ["COCCCOc1cc(NC2CCC(N)CC2)ccc1C(C)(C)C (stereo not drawn) [Compound 300A]", "HT-1080 cells", "7.00 to 10.00"],
  ["NC1CCC(Nc2ccc(N3CCC(C(F)(F)F)CC3)c(F)c2)CC1 (stereo not drawn)", "HT-1080 cells", "7.00 to 10.00"],
  ["CCC1CCN(c2ncc(NC3CCC(N)CC3)cn2)CC1 (stereo not drawn)", "HT-1080 cells", "7.00 to 10.00"],
  ["CN(C)C(=O)C1CCC(Nc2ccc(N3CCC(C(F)(F)F)CC3)cc2)CC1 (stereo not drawn)", "HT-1080 cells", "7.00 to 10.00"],
  ["CCCC1CCN(c2ncc(NC3CCC(N)CC3)cn2)CC1 (stereo not drawn)", "HT-1080 cells", "7.00 to 10.00"],
  ["N[C@H]1CC[C@H](CNc2ccc(N3CCC(C(F)(F)F)CC3)nc2F)CC1", "HT-1080 cells", "7.00 to 10.00"],
  ["Cc1nc(N2CCOC(C)C2)ccc1NC1C2CC3CC1CC(CN)(C3)C2 (stereo not drawn)", "HT-1080 cells", "7.00 to 10.00"],
  ["CC(C)(C)c1ccc(NC2CCC(N)(C(=O)O)CC2)cc1 (stereo not drawn)", "HT-1080 cells", "5.00 to 6.00"],
  ["CC(C)(C)c1ccc(N[C@H]2CC[C@H](N)CC2)cc1", "HT-1080 cells", "7.00 to 10.00"],
  ["Cc1nc(N2CCC(C(F)(F)F)CC2)ncc1NC1CCC(N)CC1 (single isomer, unassigned) [Compound 65A]", "HT-1080 cells", "7.00 to 10.00"]
]}

###

# Test system: HT-1080 cells
# Assay: HT-1080 cell viability assay (ferroptosis induced by RSL3, Cell Titer-Glo)
# Type: cell-based
# Setup conditions: Homo sapiens, HT-1080, 20 h, ferroptosis inducer RSL3, 20 hours, ferroptosis inhibitory activity, Table 2
pEC50: −log10 of the molar value.

{"columns": ["Compound", "Target or test system", "pEC50"],
 "data": [
  ["CC1CCN(c2ncc(NC[C@H]3CC[C@H](N)CC3)cc2C(F)(F)F)CC1", "HT-1080 cells", "7.00 to 10.00"],
  ["NC1CCC(Nc2ccc(CC(F)(F)F)cc2)CC1 (centres unmarked)", "HT-1080 cells", "5.00 to 6.00"],
  ["COCCNC1CCC(Nc2ccc(C(C)(C)C)cc2)CC1 (centres unmarked)", "HT-1080 cells", "6.00 to 7.00"],
  ["CC1(C)CCC(c2ccc(NC3CC(NC(=O)[C@H]4CNC(=O)N4)C3)cc2)CC1 (some centres unmarked)", "HT-1080 cells", "6.00 to 7.00"],
  ["COC1(C(F)(F)F)CCN(c2ccc(NC3CC4(CC(N)C4)C3)c(C)n2)CC1 (centres unmarked)", "HT-1080 cells", "7.00 to 10.00"],
  ["COCCOCCNc1ccc(C2CCC(C)(C)CC2)cc1", "HT-1080 cells", "6.00 to 7.00"],
  ["CC(C)(C)c1ccc(NC2CCCC(N)C2)cc1 (single isomer, unassigned) [Compound 149A]", "HT-1080 cells", "6.00 to 7.00"],
  ["N[C@H]1CC[C@H](CNc2ccc(N3CCC(C(F)(F)F)CC3)nc2)CC1", "HT-1080 cells", "7.00 to 10.00"],
  ["Cc1nc(N2CCC3(CCCCO3)CC2)ccc1NC1CC2(CC(N)C2)C1 (centres unmarked)", "HT-1080 cells", "7.00 to 10.00"],
  ["CC(C)C1CCN(c2ncc(NC3CCC(C(N)=O)CC3)cn2)CC1 (centres unmarked)", "HT-1080 cells", "7.00 to 10.00"],
  ["CC(=O)N1C(C)CN(c2ccc(NC3CC4(CC(N)C4)C3)c(C)n2)CC1C (centres unmarked)", "HT-1080 cells", "7.00 to 10.00"],
  ["CC(C)(C)c1ccc(NC2CCC(N)CC2)c(F)c1 (centres unmarked)", "HT-1080 cells", "6.00 to 7.00"],
  ["CCCc1ccc(NC2CCC(N)CC2)cc1 (single isomer, unassigned) [Compound 135A]", "HT-1080 cells", "6.00 to 7.00"],
  ["CC(C)(C)c1ccc(NC2CCC(NCC(F)(F)F)CC2)cc1 (centres unmarked) [Compound 168A]", "HT-1080 cells", "5.00 to 6.00"],
  ["CC1(C)CCC(c2ccc(NC3CCC(N)(CO)CC3)cc2)CC1 (centres unmarked) [Compound 275A]", "HT-1080 cells", "7.00 to 10.00"],
  ["Cc1cc(N2CC3(COC3)C2)ccc1NC1CC2(CC(N)C2)C1 (centres unmarked)", "HT-1080 cells", "7.00 to 10.00"],
  ["CC(C)(C)c1ccc(NCC2CCC(CN)C2)cc1 (centres unmarked)", "HT-1080 cells", "7.00 to 10.00"],
  ["COC(C)(C)C1CCN(c2ccc(NC3CC4(CC(N)C4)C3)c(C)n2)CC1 (centres unmarked)", "HT-1080 cells", "7.00 to 10.00"],
  ["CC(C)(C)c1ccc(NCCn2ccnc2)cc1", "HT-1080 cells", "5.00 to 6.00"],
  ["CC1(C)CCC(c2ccc(NC3CCC(CN)C3)cc2)CC1 (centres unmarked)", "HT-1080 cells", "7.00 to 10.00"],
  ["CC(C)(C)c1ccc(N[C@@H]2C[C@H](N)C[C@H](N)C2)cc1", "HT-1080 cells", "6.00 to 7.00"],
  ["CC1(C)CCC(c2ccc(NC3CCOCC3)cc2)CC1", "HT-1080 cells", "7.00 to 10.00"],
  ["CCC(C)(C)c1ccc(NC2CC(N)C2)cc1 (centres unmarked)", "HT-1080 cells", "7.00 to 10.00"],
  ["CN(C)C1CCC(Nc2ccc(C3CCC(C)(C)CC3)cc2)CC1 (single isomer, unassigned) [Compound 91A]", "HT-1080 cells", "7.00 to 10.00"],
  ["Cc1nc(N2C[C@H](C)O[C@@H](C)C2)ccc1NC1CC2(CC(N)C2)C1 (some centres unmarked)", "HT-1080 cells", "7.00 to 10.00"],
  ["CC(C)(C)c1ccc(NC2CCC(C(N)=O)CC2)cc1 (centres unmarked)", "HT-1080 cells", "6.00 to 7.00"]
]}
